test: recombinant UMI read abundance after kanamycin selection (control-corrected) (log10(CPM+1)); higher = more efficient recombination; extreme values may be limits of the assay; sequences stand for … in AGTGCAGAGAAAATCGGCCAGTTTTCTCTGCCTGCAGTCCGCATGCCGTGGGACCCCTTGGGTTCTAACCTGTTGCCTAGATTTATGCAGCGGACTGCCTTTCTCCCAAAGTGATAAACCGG…AGGTTGGTTTCACT; site = the 11-nt donor;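 note: IS621 bridge recombinase in Escherichia coli cells against a fixed T5 target plasmid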
// map recombinant UMI read abundance (log10) onto a label; ranges low range = under 0.02, mid range = from 0.02 up to 0.5, high range = 0.5 and over

AGCCCTCCATGGACCGGTTTTCCCGGTAATCCGTATTTGTT (site AGCCCTCCTAA)	low range
CGTTAGACATGGACCGGTTTTCCCGGTAATCCGTATTTGAG (site CGTTAGACTTT)	mid range
TCAAACTCATGGACCGGTTTTCCCGGTAATCCGTATTTGCA (site TCATACTCTTG)	high range

Category of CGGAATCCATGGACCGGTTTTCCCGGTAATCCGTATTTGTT (site ACGAATCCTAA) , please. low range
